- Test system: SR leukemia
- procedure-details: NCI-60 one-dose screen, 48 h (100 = growth as untreated, 0 = no growth, -100 = all killed)
- reported-conditions: 10 µM unless noted
Compounds without any hit were thinned out: in the full panel of roughly 83,000, 20% have a hit. The source made the active and inactive calls. The calls were made as follows: active = growth percent below 10; inactive = the rest.
Examples of compounds with documented growth follow.
measurement-type: growth

Cc1[nH]c(C(=O)Nc2ccccc2OC2CCNC2)c(Cl)c1Cl (stereo unspecified): 0.45% (active)
CCN(CC)CCCNc1cc(OC)cc2cccnc12: 100% (inactive)
O=C1Nc2ccccc2/C1=C/c1cccn1CCCCCCn1c2ccccc2c(=O)c2ccccc21: 80.8% (inactive)
CCCN1C2CCC1/C(=C\c1ccc(OC)cc1)C(=O)/C2=C/c1ccc(OC)cc1: 45.4% (inactive)
O=C(O)c1nn(-c2ccc(Cl)cc2)nc1N1CCCC1: 99% (inactive)
C#CC(F)(F)[C@]1(O)CCC2C3CCC4=CC(=O)CCC4=C3[C@@H](c3ccc(N(C)C)cc3)C[C@@]21C (stereo partly specified): 63.8% (inactive)

---

- Tested on: CCRF-CEM leukemia
- procedure-details: NCI-60 one-dose screen, 48 h (100 = growth as untreated, 0 = no growth, -100 = all killed)
- reported-conditions: 10 µM unless noted
The panel holds about 83,000 compounds, 20% with a hit somewhere; the sample as a whole holds those more often. Active and inactive are the calls of the source. The calls were made as follows: active = growth percent below 10; inactive = the rest.
measurement-type: growth

O=C(OCC(O)(CO)C(=O)NC12CC3CC(CC(C3)C1)C2)c1ccc(Cl)cc1 (stereo not given): 87.8% (inactive)
O=C(Nc1cccc(Cl)c1)Oc1c(Cl)c(Cl)c(Cl)c(Cl)c1Cl: 94.4% (inactive)
CC(=O)[C@H]1CC[C@]2(C)[C@@H]1CC[C@@H]1[C@@]3(C)C/C(=C/c4cccnc4)C(=O)C(C)(C)[C@@H]3CC[C@]12C: 31.7% (inactive)
C#CC#CC#CC#CC#CC#CC#CC#CC[C@@H]1OC[C@H](COC(=O)O[C@@H](C(=O)O[C@H]2C[C@@]3(O)[C@@H](OC(=O)c4ccccc4)[C@@H]4[C@]5(OC(C)=O)CO[C@@H]5C[C@H](O)[C@@]4(C)C(=O)[C@H](OC(C)=O)C(=C2C)C3(C)C)[C@@H](NC(=O)c2ccccc2)c2ccccc2)O1: 13.8% (inactive)
O=C1C=CC2(O)OC(c3ccccc3)CC(=O)C2=C1O (stereo not given): 46.1% (inactive)
N=C(N)c1ccc(-c2ccc(-c3ccccc3)s2)nc1: 68.9% (inactive)
c1ccc(Cn2cc3c(c2)-c2nc(Nc4ccccc4)ncc2CC3)cc1: 2.85% [100 µM] (active)
CCN(CC)CCN1C(=O)c2c(c(C)c3c(oc4cc(OC)ccc43)c2C)C1=O: -10.9% (active)
CC1(C)CC(=O)C2=C(C1)OC(C(=O)c1ccccc1)C2c1cccc(Oc2ccccc2)c1 (stereo not given): 34.5% (inactive)
C#Cc1ccc(NC(=O)Cc2ccc(/C=C/C(=O)c3nccn3C)cc2)cc1: 21.4% (inactive)
C#Cc1cccc(Nc2ncnc3ccc(-c4cnc(Cl)c(NS(C)(=O)=O)c4)cc23)c1: 7.99% (active)
COc1nc2ccccc2cc1/C=[N+](\[O-])c1ccccc1: 13.1% (inactive)
O=C(/C=C/c1ccc([N+](=O)[O-])cc1)c1cccc(Nc2nc(Nc3ccccc3)nc(Nc3ccccc3)n2)c1: 46.2% (inactive)
CCCCC/C=C/CCC(=O)N[C@H]1[C@H](Oc2c3cc4cc2Oc2ccc(cc2Cl)[C@@H](O[C@@H]2O[C@H](CO)[C@@H](O)[C@H](O)[C@H]2NC(C)=O)[C@@H]2NC(=O)[C@H](NC(=O)[C@@H]4NC(=O)[C@H]4NC(=O)[C@@H](Cc5ccc(c(Cl)c5)O3)NC(=O)[C@@H](N)c3ccc(O)c(c3)Oc3cc(O)cc4c3)c3ccc(O)c(c3)-c3c(O[C@H]4O[C@H](CO)[C@@H](O)[C@H](O)[C@@H]4O)cc(O)cc3[C@H](C(=O)O)NC2=O)O[C@H](CO)[C@H](O)[C@@H]1O: 113% (inactive)
COc1ccc(NC(=O)c2sc3nc(C)c(C(=O)c4ccccc4)cc3c2N)cc1: 95% (inactive)

---

- System: NCI-H23 lung
- procedure-details: NCI-60 one-dose screen, 48 h (100 = growth as untreated, 0 = no growth, -100 = all killed)
- reported-conditions: 10 µM unless noted
Compounds without any hit were thinned out: in the full panel of roughly 83,000, 20% have a hit.
measurement-type: growth (%)

[2H]C([2H])([2H])Oc1ccc(/C=C/C(=O)/C=C(/C=C/c2ccc(OC([2H])([2H])[2H])c(OC([2H])([2H])[2H])c2OC([2H])([2H])[2H])OB(F)F)c(OC([2H])([2H])[2H])c1OC([2H])([2H])[2H]: 59.5
CCNCCNc1c(C)c(-c2ccc(C(F)(F)F)cc2)c(C#N)c2nc3ccccc3n12: 90
Nc1nc(=O)n([C@H]2CC=C(CO)O2)cc1F: 98.5
O=C1c2ccccc2C(=O)c2cc(Cn3c[n+](Cc4ccc5ccccc5c4)c4ccccc43)ccc21: 56.5

---

- Test system: HCT-116 colon
- procedure-details: NCI-60 one-dose screen, 48 h
- reported-conditions: 10 µM unless noted
About 83,000 compounds went through this panel and 20% of them were active in at least one assay; those are over-represented in the sample as a whole. Calls of active or inactive are those of the source. Rule for the calls: active = growth percent below 10; inactive = the rest.
Outcome codes: active, inactive

O=C(Nc1ncc(Cc2ccccc2Cl)s1)c1ccc2c(c1)OCCO2: active
Nc1ccc(N)c2c1C(=O)c1cccc([N+](=O)[O-])c1C2=O: inactive
Cn1ccnc1C(=O)/C=C/c1ccc(CC(=O)Nc2cc(F)c(F)c(F)c2)cc1: active
CO[C@H]1CC(c2ccc[nH]2)=N[C@]12O[C@@H](C)C[C@@H]1CCCCCCCc3ccc([nH]3)[C@H]12: active
C=CCNc1nc(O)c(/C=C2\C=Nc3ncccc32)s1: active
CCOC(=O)c1cnc2sc(-c3ccc(OC)cc3)nc2c1Cl: inactive
CC(=O)OCC(=O)O[C@@H]1C[C@]2(C(C)C)O[C@@]1(C)[C@@H]1CC[C@@H](C)[C@H]1[C@@H]2OC(=O)/C=C/c1ccccc1: inactive
Cc1ccc(C(=O)Nc2ccc(CN3CCN(C)CC3)c(C(F)(F)F)c2)cc1C#Cc1cnc(N)c2ccccc12: active
O=C(NC1CCCCCC1)c1ccc2c(=O)n3c(nc2c1)CCCCC3: inactive

---

- Tested on: MDA-MB-435 melanoma
- procedure-details: NCI-60 one-dose screen, 48 h (100 = growth as untreated, 0 = no growth, -100 = all killed)
- reported-conditions: 10 µM unless noted
Compounds without any hit were thinned out: in the full panel of roughly 83,000, 20% have a hit. Active and inactive are the calls of the source. Rule for the calls: active = growth percent below 10; inactive = the rest.
measurement-type: growth

Cc1ccc(NC(=O)c2ccc(Nc3ncnc4c3cnn4-c3cccc(F)c3)cc2)cc1: 100% (inactive)
Cc1nc2sc(C(=O)Nc3ccccc3)c(N)c2cc1C(O)c1ccccc1 (stereo not drawn): -18.3% (active)
Cc1nc2cccc(NCc3ccc(C(=O)NO)cc3)c2c(=O)n1-c1ccccc1: 27% (inactive)
C[C@H]1c2ccccc2CN1CCCOc1cc2c(cc1OCC1CC1)C1(CCCC1)C(N)=N2: 36.4% (inactive)
c1ccc(-c2cn3nc(-c4c[nH]c5ccccc45)sc3n2)cc1: 26.5% (inactive)
COc1ccc(-c2cc(-c3ccc(Nc4nc(Nc5ccc(Cl)cc5)nc(Nc5ccc(Cl)cc5)n4)cc3)no2)cc1: 71.3% (inactive)
CN1CCN(Cc2ccc(NC(=O)c3cncc(C#Cc4c(N)ncc5ccccc45)c3)cc2C(F)(F)F)CC1: -90.3% (active)
NCCNc1ccc([N+](=O)[O-])cc1: 113% (inactive)
O=C(CSc1nnc(-c2ccc(Cl)c(Cl)c2)n1-c1ccccc1)Nc1ccc(C(=O)/C=C/c2ccc(Cl)cc2)cc1: 94.3% (inactive)
CC(=O)O[C@H]1CC[C@@]2(C)C(=CC[C@@H]3[C@@H]2CC[C@]2(C)C(Cl)=C(c4nc5ccc(Cl)cn5c4NC(C)(C)C)C[C@@H]32)C1: 93.8% (inactive)
C#CCOc1ccc(C2=NN(CCCC)C3N=C(Cl)c4ncn(CCCC)c4N23)cc1OCC#C (stereo not drawn): 86.7% (inactive)
CS(=O)(=O)Nc1cc(-c2ccc3ncnc(Nc4cccc(Cl)c4)c3c2)cnc1Cl: 8.58% (active)
Cc1ccc(Nc2nc(N)nc(N)c2N=O)cc1Cl: 89.1% (inactive)
C=C(c1ccc(OC)c(/C=C/C(=O)c2cc(OC)c(OC)c(OC)c2)c1)c1cc(OC)c(OC)c(OC)c1: -28.1% (active)
CN1CC(c2ccccc2)C(C(=O)c2ccc(Br)cc2)C12C(=O)Nc1ccccc12 (stereo not drawn): 106% (inactive)
O=C(/C=C/c1ccc(Cl)cc1)c1ccc(-n2cc(CN3CCN(c4cc5c(cc4F)c(=O)c(C(=O)O)cn5C4CC4)CC3)nn2)cc1: 82.2% (inactive)
COc1cccc(NC(=O)c2sc3nc(C)c(C(=O)c4ccccc4)cc3c2N)c1: 29.9% (inactive)
CC(C)(C)n1cc(-c2ccnc(NCCNS(=O)(=O)c3ccc(Br)cc3)c2)c(-c2cccc(O)c2)n1: 28.1% (inactive)
CCOc1ccc(N2C(=O)CCSC2=S)cc1: 98% (inactive)
O=CN1N=C(c2cccc(Nc3ccncc3)c2)CC1c1ccc2c(c1)OCO2 (stereo not drawn): 92.1% (inactive)
COc1ccc(NC(=O)c2ccc(Cl)cc2Cl)cc1: 88.3% (inactive)
CN1CCN(Cc2ccc(NC(=O)c3cncc(C#Cc4cnc(N)c5ncccc45)c3)cc2Cl)CC1: 94.2% (inactive)
CCOC(=O)c1c(C)nc2c(c1N)C(=O)C(=O)N2CCc1ccc(OC)c(OC)c1: 41.4% (inactive)
O=C(/C=C/c1ccco1)Nc1ncc(Cc2ccc(F)cc2)s1: -17.6% (active)
CC1=C2[C@@H](CC1)[C@]1(C)O[C@@](C(C)C)(C[C@H]1OC(=O)CO)[C@H]2OC(=O)CCCc1ccccc1: 78.7% (inactive)
CC(Cc1cccc2ccccc12)C(N)=O (stereo not drawn): 98.9% (inactive)
COC(=O)c1c(C)nc(C)c2c1C(=O)C(Br)=C(NCCCCO)C2=O: -25.3% (active)
COC12C=C/C(=C(/C(=O)OCc3ccccn3)C(=O)CCCCCCCCC3(OC)C=C/C(=C(/C(=O)OCc4ccccn4)C(=O)CCCCCCCC1)O3)O2: -23.6% (active)
O=C(O)/C=C\C(=O)Nc1ccc2c(c1)Cc1cc(F)ccc1-2: 102% (inactive)
Cc1ccc(S(=O)(=O)N(CCC(=O)O)c2ccccc2)cc1: 107% (inactive)
c1ccc(Cn2cc3c(c2)-c2nc(Nc4ccccc4)ncc2CC3)cc1: 96% [100 µM] (inactive)
CCOC(=O)c1ccc2c(c1)[n+](=O)c(C(C)=O)c(C(F)(F)F)n2[O-]: 2.85% (active)
CCCCCCCCCCCCCCCCCCOc1ccccc1CC(=O)OCC[N+]1(C)CCCCC1: 57% (inactive)
Nc1nc(Nc2ccc([N+](=O)[O-])cc2O)nc(C(Cl)(Cl)Cl)n1: -36.6% (active)
COC(CCP(=O)(c1ccccc1)c1ccccc1)(C(=O)c1ccccc1)c1ccccc1 (stereo not drawn): 71.4% (inactive)
C=C1C(=O)O[C@H]2[C@H]1CC/C(CNC(=O)/C=C/c1cc(OC)c(OC)c(OC)c1)=C\CC[C@@]1(C)O[C@@H]21: -60.3% (active)
O=C(OCc1ccc2c(Br)cc(Br)c(O)c2n1)N1CCN(C(=O)c2cc3ccccc3[nH]2)CC1: 43.9% (inactive)
COc1cc(OCc2cccc(-c3ccccc3)c2C)cc(OC)c1CN1CCCCC1C(=O)NCCOCCOCCN (stereo not drawn): -72.8% (active)
